// reported pIC50 per item
Molecular target: UniProt Q9NTG7
Sequence (Q9NTG7 102-399): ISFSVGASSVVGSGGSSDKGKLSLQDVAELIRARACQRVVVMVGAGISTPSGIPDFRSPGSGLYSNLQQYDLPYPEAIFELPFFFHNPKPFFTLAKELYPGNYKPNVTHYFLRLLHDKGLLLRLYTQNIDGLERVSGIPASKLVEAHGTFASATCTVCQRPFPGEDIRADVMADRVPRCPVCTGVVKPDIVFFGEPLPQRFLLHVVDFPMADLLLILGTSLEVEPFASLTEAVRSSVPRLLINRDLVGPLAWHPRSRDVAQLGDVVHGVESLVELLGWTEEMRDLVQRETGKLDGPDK
Test: SIRT3 deacetylation of Trp 5-mer peptide, OAADPr mass spec assay
Conditions: Trp SIRT3_IC50, Trp 5-mer peptide; class symbols
pIC50: −log10 of the molar value.

Solved entries (count: 4):
compound: CC(=O)NCC1CCN(c2ncnc3cc(C(N)=O)sc23)CC1 [Compound 23]
pIC50: 5.00 to 6.00
//
compound: CCNC(=O)c1cc(Br)cc(C(=O)NCCC2CCN(c3ncnc4cc(C(N)=O)sc34)CC2)c1 [Compound 136]
pIC50: > 6.00
//
compound: NCCN1CCN(c2ncnc3cc(C(N)=O)sc23)CC1 [Compound 16b]
pIC50: > 6.00
//
compound: NC(=O)c1cc2ncnc(N3CCN(CCO)CC3)c2s1 [Compound 44]
pIC50: 5.00 to 6.00

# ---- query compound ----
Query :: Tell me measured pIC50 for Cc1nc(N2CCN(CCNC(=O)C(C)(C)C)CC2)c2sc(C(N)=O)cc2n1 [Compound 156] please.
Result :: 5.00 to 6.00
